system-tested: Glucagon-like peptide 2 receptor (Homo sapiens, UniProt O95838)
Sequence (O95838 whole entry): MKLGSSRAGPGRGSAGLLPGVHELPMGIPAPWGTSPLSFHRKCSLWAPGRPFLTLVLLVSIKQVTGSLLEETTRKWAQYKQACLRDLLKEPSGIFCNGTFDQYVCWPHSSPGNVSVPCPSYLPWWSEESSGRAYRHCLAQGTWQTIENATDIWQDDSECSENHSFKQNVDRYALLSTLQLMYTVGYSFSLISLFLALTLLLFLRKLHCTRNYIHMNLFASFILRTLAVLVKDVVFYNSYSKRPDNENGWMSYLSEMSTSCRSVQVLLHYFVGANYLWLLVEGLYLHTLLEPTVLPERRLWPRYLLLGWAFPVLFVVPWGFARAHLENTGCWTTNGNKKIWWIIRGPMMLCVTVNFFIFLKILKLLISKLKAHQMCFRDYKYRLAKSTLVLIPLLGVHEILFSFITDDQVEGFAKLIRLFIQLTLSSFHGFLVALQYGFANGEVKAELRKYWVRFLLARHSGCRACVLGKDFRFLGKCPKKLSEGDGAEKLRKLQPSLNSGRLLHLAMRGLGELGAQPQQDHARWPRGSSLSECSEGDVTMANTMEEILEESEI
assay-method-text: Agonist activity at human GLP2R expressed in HEK293 cells after 5 hrs by luciferase reporter gene assay
Format: cell-based
value-kind: EC50 (pM)

Check out these entries, answers already filled in.
> print(dat)
                                substance  observed.measurement
1  H-HGDGSFSDEMNTILDNLAARDFINWLIQTKIT-NH2                   290
2    H-HGDGSFSDEMNTILDNLAARDFINWLIQTK-NH2                   220
3     H-HGDGSFSDEMNTILDNLAARDFINWLIQT-NH2                   630
4      H-HGDGSFSDEMNTILDNLAARDFINWLIQ-NH2                  1100

A: H-HGDGSFSDEMNTILDNLAARDFINWLI-NH2
B: H-HGDGSFSDEMNTILDNLAARDFINWLIQTKI-NH2
Asked: For the pair A and B , which entry has the numerically smaller recorded EC50? Please indicate the selected item by its label.
Given back: B
(B: 480 pM, A: 1100 pM)

====

system-tested: Glucagon-like peptide 2 receptor (Homo sapiens) (UniProt O95838)
assay-method-text: Potency index, ratio of compound EC50 to compound 2 EC50 for human GLP2R expressed in HEK293 cells
Type: cell-based
value-kind: Ratio EC50

Reference set (4 entries):
> print(dat)
                                substance  observed.measurement
1    H-HGDGSFSDEMNTILDNLAARDFINWLIQTK-NH2                   2.4
2     H-HGDGSFSDEMNTILDNLAARDFINWLIQT-NH2                     7
3       H-HGDGSFSDEMNTILDNLAARDFINWLI-NH2                    12
4  H-HGDGSFSDEMNTILDNLAARDFINWLIQTKIT-NH2                   3.2

P: H-HGDGSFSDEMNTILDNLAARDFINWLIQ-NH2
Q: H-HGDGSFSDEMNTILDNLAARDFINWLIQTKI-NH2
Asked: Compare P and Q by numeric Ratio EC50 and name the larger one. Respond using the label that marks the chosen record.
Given back: P

meta.source: ChEMBL document CHEMBL3822442
